meta.source: patent US20230365667A1

# TESTED TARGET: T1, Abeta peptide (40-amino acid Abeta peptide, SEQ ID NO: 1), biotinylated (human, N-terminal biotin or C-terminal lysine-linked biotin, separated from the peptide by a PEG6 linker)
# T1 construct: Synthesized by Genscript; also called amyloid beta; test peptide
# T1 sequence (peptide, as listed by the source): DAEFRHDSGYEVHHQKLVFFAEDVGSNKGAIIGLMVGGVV
# MEASUREMENT NOTES: BLI (Octet HTX), biotinylated Abeta on streptavidin sensors, 1 uM VHH, 1:1 fit
Mark each entry TRUE if its koff sits below 0.003 s⁻¹, and FALSE for all others.

binder="vhhLib01-2 (VHH, The entry as printed includes HHHHHH) VHH: QVQLVESGGGLVQPGGSLRLSCAASGSIFSANHMGWYRQAPGKQRELVAAISSGGLTNYADSVKGRFTISRDNAKNTVYLQMNSLKPEDTAVYYCARHQTKIYNLHYYYFDYWGQGTLVTVSS" class_assignment=FALSE
binder="vhhLib02-53 (VHH, The entry as printed includes HHHHHH; also called 06BHK) VHH: EVQLVESGGGLVQPGGSLRLSCAASGFTFSRYLMSWYRQAPGKQRELVGAIASGGVTYYADSVKGRFTISRDNSKNTLYLQMNSLRAEDTAVYYCARGNPSERLYYYFDYWGQGTLVTVSS" class_assignment=TRUE
binder="vhhLib02-64 (VHH, The entry as printed includes HHHHHH) VHH: EVQLVESGGGLVQPGGSLRLSCAASGFTFSGYFMSWYRQAPGKQRELVSVINSGGSTYYADSVKGRFTISRDNSKNTLYLQMNSLRAEDTAVYYCARGRVATGGGYGFVHYFDVWGQGTLVTVSS" class_assignment=TRUE
binder="vhhLib05-5 (VHH, The entry as printed includes a doubled TLVTVSS and HHHHHH) VHH: EVQLLESGGGLVQPGGSLRLSCAASGFTFSSYAMSWVRQAPGKQREWVSAISGSGGSTYYADSVKGRFTISRDNSKNTLYLQMNSLRAEDTAVYYCARLDYTDGINYFDYWGQGTLVTVSS" class_assignment=TRUE
binder="vhhLib05-49 (VHH, also called 20BHK) VHH: EVQLLESGGGLVQPGGSLRLSCAASGFTFSSYAMSWVRQAPGKQREWVSAISGSGGSTYYADSVKGRFTISRDNSKNTLYLQMNSLRAEDTAVYYCARDTNQPYHGRYVYTYDFDVWGQGTLVTVSS" class_assignment=TRUE
binder="vhhLib02-91 (VHH, The entry as printed includes HHHHHH; also called 09BHK) VHH: EVQLVESGGGLVQPGGSLRLSCAASGFTVSDYHMSWYRQAPGKQRELVSVILSGGRTYYADSVKGRFTISRDNSKNTLYLQMNSLRAEDTAVYYCARADAIFPWFDVWGQGTLVTVSS" class_assignment=TRUE
binder="vhhLib01-58 (VHH, The entry as printed includes HHHHHH) VHH: QVQLVESGGGLVQPGGSLRLSCAASGSIFSPNHMGWYRQAPGKQRELVAAIYSGGTTNYADSVKGRFTISRDNAKNTVYLQMNSLKPEDTAVYYCARRTFLRGWSGYLPWFDVWGQGTLVTVSS" class_assignment=FALSE
binder="vhhLib01-48 (VHH, The entry as printed includes HHHHHH) VHH: QVQLVESGGGLVQPGGSLRLSCAASGSIFSANIMGWYRQAPGKQRELVAAIVSGGYTNYADSVKGRFTISRDNAKNTVYLQMNSLKPEDTAVYYCARDQDAFDHVGQYFDHWGQGTLVTVSS" class_assignment=FALSE
